tested on: PH5CH8 liver cells; experiment: High-throughput hepatic de novo lipogenesis (DNL) assay, high content imaging of steatotic phenotype; assay type: cell-based, human; details: S1 Table, SAR for N-Substituted Phenylbenzamides; read-out: IC50
measurement_name: IC50 (nM)
Quick reminder: number only, in nM, skip the unit.

Recorded result, COC(=O)c1ccc(NC(=O)c2cc(C(F)(F)F)ccc2O)c(Cl)c1 [Compound 500844] , IC50: 70

Recorded result, COC(=O)c1ccc(NC(=O)c2cc(C)ccc2O)c(Cl)c1 [Compound 500828] , IC50: 1680

* * *

system: Salmonella typhimurium TA100; conditions: 1.5 ug/Well; with S9
Give Mean Revertant Colony Counts TA-100 SP9+ for every item shown.

Recorded result, CC(C)(C)c1ccc(O)c(C(=O)Nc2ccc(C(=O)O)cc2Cl)c1 , Mean Revertant Colony Counts TA-100 SP9+: 18.7

Recorded result, CC(C)(C)c1ccc(O)c(C(=O)Nc2ccc(C(=O)O)cc2C(F)(F)F)c1 , Mean Revertant Colony Counts TA-100 SP9+: 22.3

Recorded result, CC(C)(C)c1cc(C(=O)Nc2ccc(C(=O)O)cc2Cl)c(O)c(C(C)(C)C)c1 , Mean Revertant Colony Counts TA-100 SP9+: 17.3

Recorded result, CC(C)(C)c1ccc(O)c(C(=O)Nc2cc(C(=O)O)ccc2Cl)c1 , Mean Revertant Colony Counts TA-100 SP9+: 20.7

Recorded result, O=C(Nc1ccc([N+](=O)[O-])cc1Cl)c1cc(Cl)ccc1O [Niclosamide] , Mean Revertant Colony Counts TA-100 SP9+: 19.3
